# targetDesc: Serine/threonine-protein kinase BRSK1 (Homo sapiens) (UniProt Q8TDC3);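 also: each value is a mean percent inhibition of BRSK1 kinase activity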
# Sequence (Q8TDC3 whole entry): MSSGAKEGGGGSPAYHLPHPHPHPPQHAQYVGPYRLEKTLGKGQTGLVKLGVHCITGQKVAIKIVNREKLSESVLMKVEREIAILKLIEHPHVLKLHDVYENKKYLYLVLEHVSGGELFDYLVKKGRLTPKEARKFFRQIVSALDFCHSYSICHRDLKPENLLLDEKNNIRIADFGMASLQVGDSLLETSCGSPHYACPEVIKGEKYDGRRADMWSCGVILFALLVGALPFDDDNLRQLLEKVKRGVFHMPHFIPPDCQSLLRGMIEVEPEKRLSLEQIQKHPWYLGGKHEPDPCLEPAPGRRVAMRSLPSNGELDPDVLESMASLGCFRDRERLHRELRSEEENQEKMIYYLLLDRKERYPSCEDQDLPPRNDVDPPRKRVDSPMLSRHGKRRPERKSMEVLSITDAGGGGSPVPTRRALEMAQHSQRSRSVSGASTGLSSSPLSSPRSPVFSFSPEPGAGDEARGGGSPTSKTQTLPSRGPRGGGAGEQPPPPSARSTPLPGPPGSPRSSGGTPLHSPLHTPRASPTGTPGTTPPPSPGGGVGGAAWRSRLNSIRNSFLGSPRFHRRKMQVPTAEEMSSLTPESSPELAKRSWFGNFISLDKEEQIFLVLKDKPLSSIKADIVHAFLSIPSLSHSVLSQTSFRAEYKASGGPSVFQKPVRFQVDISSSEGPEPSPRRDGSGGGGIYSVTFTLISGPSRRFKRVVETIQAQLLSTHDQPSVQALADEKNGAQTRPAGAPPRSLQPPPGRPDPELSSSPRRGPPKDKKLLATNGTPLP
# runParameters: at 1 µM
Each entry below lists one item and its recorded inhibition value.
Your answer is read as %, so omit the unit and give the number.

Recorded results for 8 molecules are shown here.
Ask | Fill blank: measured inhibition of the molecule CCn1c(-c2nonc2N)nc2cnc(Oc3cccc(NC(=O)c4ccc(OCCN5CCOCC5)cc4)c3)cc21 is ____.
Reply | 0.26

Ask | So what's the measured inhibition for this one? CC(C)=Cc1cccc2c1/C(=N/Nc1ccc(S(N)(=O)=O)cc1)C(=O)N2
Reply | 45

Ask | Item CCn1c(-c2nonc2N)nc2cncc(C(=O)N3CC[C@H](N)C3)c21 has what recorded inhibition?
Reply | 2.48

Ask | Could you tell me which inhibition is on file for COc1ccc(-c2nn3ncccc3c2-c2ccnc(Nc3ccc(Cl)c(C(F)(F)F)c3)n2)cc1 ?
Reply | 1.98

Ask | Can you share its inhibition? I mean this molecule: Cn1cc(C=C2C(=O)Nc3cccnc32)c2ccccc21
Reply | 12.3

Ask | Report inhibition for COc1ccccc1Nc1ncc(-c2ccccc2)o1 please.
Reply | 3.87

Ask | # query: inhibition of entry COc1ccc2cc(-c3c(-c4ccncc4)nc(-c4ccc([S+](C)[O-])cc4)n3C)ccc2c1 (stereo unspecified)
Reply | 3.16

Ask | Quick one: inhibition for CCn1c(-c2nonc2N)nc2cncc(C(=O)N3CCNCC3)c21 ?
Reply | -2.27

Others:
Ask | Endpoint output: inhibition of CS(=O)(=O)CCNCc1ccc(-c2ccc3ncnc(Nc4ccc(OCc5cccc(F)c5)c(C(F)(F)F)c4)c3c2)o1 . Value?
Reply | -1.79

Ask | // inhibition lookup, key: NCc1ccc(-c2nc(-c3ccc(Cl)c(O)c3)c(-c3ccncc3)[nH]2)cc1
Reply | 0.59

Ask | // lookup inhibition for COc1cc(C=NNc2ncnc3c2cnn3-c2ccccc2)ccc1O
Reply | 40.1

Ask | Item under review: N#Cc1c(NC(=O)c2cccc3ccccc23)sc2c1CCCC2 . Reported inhibition?
Reply | 3.56

Ask | Look up inhibition for this molecule: CS(=O)(=O)CCN(CC#N)Cc1ccc(-c2ccc3ncnc(Nc4ccc(OCc5cccc(F)c5)c(Cl)c4)c3c2)o1
Reply | -2.91

Ask | # inhibition lookup, item COc1cc2ncn(-c3cc(O[C@@H](C)c4ccccc4Cl)c(C(N)=O)s3)c2cc1OC
Reply | 44

Ask | Suppose we examine the molecule Cc1ccc(NC(=O)c2ccnc(N3CCCC3)c2)cc1-c1ccc(C(=O)NCC2CC2)cc1 ; what inhibition value has been reported?
Reply | 3.6

Ask | Sample Nc1ncnc2occ(-c3ccc(NC(=O)Nc4cc(C(F)(F)F)cc(C(F)(F)F)c4)cc3)c12 — what was its inhibition?
Reply | 3.44

Ask | Using the record for CS(=O)(=O)Nc1ccc(N/C=C2\C(=O)Nc3ccccc32)cc1 , report its inhibition.
Reply | 16.5

Ask | Given the entry COc1cc2ncn(-c3cc(OCc4ccccc4Cl)c(C(N)=O)s3)c2cc1OC , report its measured inhibition.
Reply | 40.6

Ask | Param item = CCn1c(-c2nonc2N)nc2ccncc21 ; retrieve measured inhibition.
Reply | 2.23

Ask | Quick check: inhibition of Cc1nnc(-c2ccc(C)c(-c3ccc(C(=O)Nc4cccc(C#N)c4)cc3)c2)o1 ?
Reply | 1.01

Ask | Quick check: inhibition of COc1cc2ncn(-c3cc(OCc4ccccc4C(F)(F)F)c(C(N)=O)s3)c2cc1OC ?
Reply | 41.1

* * *

Measured inhibition by item
# targetDesc: Fibroblast growth factor receptor 1 (Homo sapiens) (UniProt P11362);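 also: values are reported as mean percent inhibition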
# Sequence (P11362 22-822 limits assumed): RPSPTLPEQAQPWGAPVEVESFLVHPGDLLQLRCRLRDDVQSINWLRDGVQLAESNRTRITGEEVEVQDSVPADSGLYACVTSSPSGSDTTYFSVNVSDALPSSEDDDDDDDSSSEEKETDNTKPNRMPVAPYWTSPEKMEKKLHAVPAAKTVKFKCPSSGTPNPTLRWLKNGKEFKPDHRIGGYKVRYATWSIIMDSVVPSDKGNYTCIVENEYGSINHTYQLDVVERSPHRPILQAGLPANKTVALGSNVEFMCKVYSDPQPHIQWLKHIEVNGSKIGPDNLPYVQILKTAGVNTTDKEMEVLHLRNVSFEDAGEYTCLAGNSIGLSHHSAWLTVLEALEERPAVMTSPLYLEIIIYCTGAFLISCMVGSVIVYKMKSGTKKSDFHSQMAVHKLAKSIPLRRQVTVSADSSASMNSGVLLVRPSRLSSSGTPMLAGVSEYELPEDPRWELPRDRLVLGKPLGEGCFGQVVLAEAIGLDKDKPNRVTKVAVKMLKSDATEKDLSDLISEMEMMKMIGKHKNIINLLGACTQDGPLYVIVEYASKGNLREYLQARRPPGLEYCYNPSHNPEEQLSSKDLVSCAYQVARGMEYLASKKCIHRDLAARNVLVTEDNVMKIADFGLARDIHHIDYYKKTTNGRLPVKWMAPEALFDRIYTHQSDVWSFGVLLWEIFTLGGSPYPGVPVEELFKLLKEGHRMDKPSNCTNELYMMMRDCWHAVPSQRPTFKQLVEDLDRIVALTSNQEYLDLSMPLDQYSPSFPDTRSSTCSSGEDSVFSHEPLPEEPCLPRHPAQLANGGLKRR
# runParameters: at 0.1 µM
State the answer as a number, implicitly in %.

Ask | Any idea what its inhibition is? The molecule is COc1cc2c(cc1Nc1nc(N3CCc4ccccc43)c3cc[nH]c3n1)N(C(=O)CN(C)C)CC2
Reply | 2.98

Ask | What value of inhibition has been recorded for this entry: CCCN1CCC=C(c2ccc(Nc3nc(Nc4ccccc4C(N)=O)c4cc[nH]c4n3)c(C)c2)C1
Reply | 1.72

Ask | // lookup inhibition for O=C(Nc1n[nH]c2nc(-c3ccco3)c(Br)cc12)C1CC1
Reply | 1.76

Ask | Fill in: inhibition of N#Cc1c(NC(=O)c2cccc3ccccc23)sc2c1CCCC2 is ___
Reply | 0.22

Ask | Param item = CCn1c(-c2nonc2N)nc2cncc(C(=O)N3CCNCC3)c21 ; retrieve measured inhibition.
Reply | 7.76

Others:
Ask | Quick check: inhibition of COC(=O)Nc1nc2cc(Oc3ccc(NC(=O)Nc4cccc(C(=O)O)c4)cc3)ccc2[nH]1 ?
Reply | -4.37

Ask | Record request: inhibition value, item Cc1cccc(-c2n[nH]cc2-c2ccc3ncccc3n2)n1
Reply | -0.21

Ask | Request the reported inhibition associated with NC(=O)c1ccc(-c2nc(-c3ccccn3)c(-c3ccc4c(c3)OCO4)[nH]2)cc1
Reply | -0.93

Ask | Returns the measured inhibition for the input molecule. Input: CS(=O)(=O)CCNCc1nc(-c2ccc3ncnc(Nc4ccc(F)c(Cl)c4)c3c2)cs1
Reply | -5.98

Ask | Consider the molecule shown here: CNC(=O)c1cncc(/C=C/c2c(Cl)cccc2Cl)c1 What is its recorded inhibition?
Reply | 1.94

Ask | What value of measured inhibition is listed for COc1ccc(-c2nn3ncccc3c2-c2ccnc(Nc3ccc(Cl)c(C(F)(F)F)c3)n2)cc1 ?
Reply | 1.96

Ask | Quick one: inhibition for CCn1c(-c2nonc2N)nc2c(C#CC(C)(C)O)nc(OC[C@@H](N)c3ccccc3)cc21 ?
Reply | -3.47

Ask | So what does the record say about inhibition for Nc1nc(-c2ccc3c(c2)C(=Cc2cc(Br)c(O)c(Br)c2)C(=O)N3)cs1 ?
Reply | -5.75

Ask | Suppose we examine the molecule COc1cc2ncn(-c3cc(OCc4ccccc4C(F)(F)F)c(C(N)=O)s3)c2cc1OC ; what inhibition value has been reported?
Reply | -0.93

Ask | Recorded inhibition of COc1ccc(-c2coc3ncnc(N)c23)cc1 , please.
Reply | 3.15

* * *

# targetDesc: PAS domain-containing serine/threonine-protein kinase (Homo sapiens) (UniProt Q96RG2);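 also: reported value is the mean percent inhibition of PASK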
# Sequence (Q96RG2 whole entry, the tested form may be a part): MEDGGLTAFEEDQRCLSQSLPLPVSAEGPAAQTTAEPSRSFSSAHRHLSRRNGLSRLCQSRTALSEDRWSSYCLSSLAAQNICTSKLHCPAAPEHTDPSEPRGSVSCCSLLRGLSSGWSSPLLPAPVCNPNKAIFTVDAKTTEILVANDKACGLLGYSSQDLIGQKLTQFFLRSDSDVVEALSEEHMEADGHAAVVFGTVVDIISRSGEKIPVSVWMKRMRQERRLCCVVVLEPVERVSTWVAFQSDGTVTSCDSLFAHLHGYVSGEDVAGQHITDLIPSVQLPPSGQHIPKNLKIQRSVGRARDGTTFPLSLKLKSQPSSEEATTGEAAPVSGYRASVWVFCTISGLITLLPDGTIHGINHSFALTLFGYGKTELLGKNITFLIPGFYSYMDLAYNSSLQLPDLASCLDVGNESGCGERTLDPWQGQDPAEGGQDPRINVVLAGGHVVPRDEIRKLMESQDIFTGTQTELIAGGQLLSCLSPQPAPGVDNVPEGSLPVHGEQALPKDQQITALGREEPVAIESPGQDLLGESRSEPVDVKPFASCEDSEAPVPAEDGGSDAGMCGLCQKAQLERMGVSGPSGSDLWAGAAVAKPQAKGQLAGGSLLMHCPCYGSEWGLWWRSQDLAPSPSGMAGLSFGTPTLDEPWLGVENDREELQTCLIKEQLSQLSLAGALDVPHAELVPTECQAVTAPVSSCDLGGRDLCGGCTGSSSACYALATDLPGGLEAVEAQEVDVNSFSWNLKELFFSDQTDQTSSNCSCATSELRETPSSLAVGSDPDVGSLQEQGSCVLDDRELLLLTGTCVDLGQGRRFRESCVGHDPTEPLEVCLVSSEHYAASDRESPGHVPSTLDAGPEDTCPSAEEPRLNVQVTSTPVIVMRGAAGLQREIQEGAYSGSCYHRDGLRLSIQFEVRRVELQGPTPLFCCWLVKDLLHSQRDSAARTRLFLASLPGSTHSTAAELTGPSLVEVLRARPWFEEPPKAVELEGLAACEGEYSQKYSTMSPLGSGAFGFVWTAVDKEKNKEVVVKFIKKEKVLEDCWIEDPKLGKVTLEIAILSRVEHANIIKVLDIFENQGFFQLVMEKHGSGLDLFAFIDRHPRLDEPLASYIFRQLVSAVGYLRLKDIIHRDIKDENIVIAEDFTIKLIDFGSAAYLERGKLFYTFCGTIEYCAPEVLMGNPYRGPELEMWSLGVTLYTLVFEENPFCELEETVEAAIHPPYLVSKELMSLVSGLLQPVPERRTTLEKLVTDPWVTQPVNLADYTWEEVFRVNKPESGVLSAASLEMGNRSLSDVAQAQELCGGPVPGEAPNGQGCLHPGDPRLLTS
# runParameters: at 1 µM
readout: inhibition (%)
Supply the numeric figure in %, leaving out any unit text.

Examples from the recorded data:
Ask | Dear colleague, I am looking for the recorded inhibition of the following compound: CC(=O)Nc1cccc(C#Cc2cncnc2Nc2ccc(OCc3cccc(F)c3)c(Cl)c2)n1
Reply | 6.21

Ask | Need inhibition, item CCn1c(-c2nonc2N)nc2cncc(C(=O)N3CCNCC3)c21
Reply | -0.89

Ask | Form field: reported inhibition of CS(=O)(=O)CCN(CC#N)Cc1ccc(-c2ccc3ncnc(Nc4ccc(OCc5cccc(F)c5)c(Cl)c4)c3c2)o1
Reply | -0.89

Further cases:
Ask | Suppose we examine the compound CS(=O)(=O)CCNCc1nc(-c2ccc3ncnc(Nc4ccc(F)c(Cl)c4)c3c2)cs1 ; what inhibition value has been reported?
Reply | 0.68

Ask | inhibition lookup needed for CC1=C(C(=O)Nc2ccc3[nH]ncc3c2)C(c2ccc(F)cc2)NC(=O)N1 (stereo not given) , thanks.
Reply | -0.21

* * *

# targetDesc: Serine/threonine-protein kinase pim-1 (Homo sapiens);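 also: reported value is the mean inhibition of PIM1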
# runParameters: at 0.1 µM
Reported inhibition values for a set of compounds
Please reply with the bare figure in % and do not write the unit itself.

Below, 2 compounds whose answers are already recorded.
Ask | Which measured inhibition value corresponds to COc1cc2ncn(-c3cc(O[C@@H](C)c4ccccc4Cl)c(C(N)=O)s3)c2cc1OC ?
Reply | -0.02

Ask | Returns the measured inhibition for the input compound. Input: COc1ccc(-c2coc3ncnc(N)c23)cc1
Reply | 1.29

Further cases:
Ask | inhibition for COc1cccc(-n2ncc3c(N/N=C/c4cccc(F)c4)ncnc32)c1 ?
Reply | -0.24

Ask | Given the compound CC(=O)Nc1cccc(C#Cc2cncnc2Nc2ccc(OCc3cccc(F)c3)c(Cl)c2)n1 , what is its reported inhibition?
Reply | 1.5

Ask | Which measured inhibition value corresponds to CC1=C(C(=O)Nc2ccc3[nH]ncc3c2)C(c2ccc3ccccc3c2)CC(=O)N1 (stereo not given) ?
Reply | 0.24

Ask | Which inhibition is reported for this compound? COc1cc(C=NNc2ncnc3c2cnn3-c2ccccc2)ccc1O
Reply | 1.39

* * *

We begin with a simple list: items and their reported inhibition.
# targetDesc: Serine/threonine-protein kinase PAK 3 (Homo sapiens) (UniProt O75914)
# Sequence (O75914 whole entry, looked up): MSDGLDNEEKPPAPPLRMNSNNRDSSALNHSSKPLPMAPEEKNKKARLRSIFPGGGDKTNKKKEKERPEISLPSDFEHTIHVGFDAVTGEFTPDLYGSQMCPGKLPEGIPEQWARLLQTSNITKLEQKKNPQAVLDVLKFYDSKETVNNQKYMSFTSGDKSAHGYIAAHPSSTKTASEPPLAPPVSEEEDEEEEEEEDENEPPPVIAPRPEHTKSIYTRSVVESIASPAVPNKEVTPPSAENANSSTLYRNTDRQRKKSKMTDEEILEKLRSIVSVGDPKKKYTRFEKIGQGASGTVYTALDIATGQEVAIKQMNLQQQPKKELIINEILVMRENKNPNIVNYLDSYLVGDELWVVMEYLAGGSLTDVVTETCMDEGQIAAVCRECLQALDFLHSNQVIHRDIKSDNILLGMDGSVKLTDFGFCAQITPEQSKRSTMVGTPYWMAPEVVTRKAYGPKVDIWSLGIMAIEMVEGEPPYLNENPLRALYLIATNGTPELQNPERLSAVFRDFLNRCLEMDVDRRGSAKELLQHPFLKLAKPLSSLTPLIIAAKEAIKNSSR
# runParameters: at 0.1 µM
Unit % implied. Number only.

The examples below pair each entry with its known result.
Ask | Reported inhibition for Serine/threonine-protein kinase PAK 3 (Homo sapiens) (UniProt O75914), given c1cnn2ncc(-c3ccnc(Nc4ccc5c(c4)OCCO5)n3)c2c1 ?
Reply | 4.71

Ask | Return inhibition measured with Serine/threonine-protein kinase PAK 3 (Homo sapiens) (UniProt O75914) given this molecule: CCn1c(-c2nonc2N)nc2ccncc21
Reply | 0.96

Ask | Request - read-out inhibition | tested on Serine/threonine-protein kinase PAK 3 (Homo sapiens) (UniProt O75914) | molecule CCn1c(-c2nonc2N)nc2cnc(Oc3cccc(NC(=O)c4ccc(OCCN5CCOCC5)cc4)c3)cc21
Reply | -3.22

Further cases:
Ask | # returns recorded inhibition (system: Serine/threonine-protein kinase PAK 3 (Homo sapiens) (UniProt O75914)) for Cc1nnc(-c2ccc(C)c(-c3ccc(C(=O)Nc4cccc(C#N)c4)cc3)c2)o1
Reply | 2.48

Ask | Notebook entry, Serine/threonine-protein kinase PAK 3 (Homo sapiens) (UniProt O75914) assay: inhibition of Cn1cc(C=C2C(=O)Nc3cccnc32)c2ccccc21 = ?
Reply | 2.68

Ask | Request: inhibition, test system Serine/threonine-protein kinase PAK 3 (Homo sapiens) (UniProt O75914), entry Cc1ccc(NC(=O)c2ccnc(N3CCCC3)c2)cc1-c1ccc(C(=O)NCC2CC2)cc1;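 also: mean percent inhibition of PAK3, measured in a screen of the GSK published kinase inhibitor set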
Reply | 4.52

Ask | For Serine/threonine-protein kinase PAK 3 (Homo sapiens) (UniProt O75914), provide inhibition of CCn1c(-c2nonc2N)nc2cncc(C(=O)N3CCNCC3)c21 please.
Reply | 7.27

Ask | What reported inhibition corresponds to CCn1c(-c2nonc2N)nc2cncc(C(=O)N3CC[C@H](N)C3)c21 on Serine/threonine-protein kinase PAK 3 (Homo sapiens) (UniProt O75914)?
Reply | 5.01

Ask | Recorded inhibition for O=C1NC(=O)C(c2ccccc2Cl)=C1Nc1cccc(O)c1 with Serine/threonine-protein kinase PAK 3 (Homo sapiens) (UniProt O75914), please?
Reply | 2.51

Ask | Observed inhibition on Serine/threonine-protein kinase PAK 3 (Homo sapiens) (UniProt O75914) for COc1ccccc1Nc1ncc(-c2ccccc2)o1 , please.
Reply | 6.21

Ask | Under Serine/threonine-protein kinase PAK 3 (Homo sapiens) (UniProt O75914): inhibition value of COc1ccc(-c2ccncc2)cc1C(N)=O ?
Reply | 5.3
